- Assay system: T1, human GIP receptor (human, UniProt P48546 22-466)
- T1 sequence (looked up): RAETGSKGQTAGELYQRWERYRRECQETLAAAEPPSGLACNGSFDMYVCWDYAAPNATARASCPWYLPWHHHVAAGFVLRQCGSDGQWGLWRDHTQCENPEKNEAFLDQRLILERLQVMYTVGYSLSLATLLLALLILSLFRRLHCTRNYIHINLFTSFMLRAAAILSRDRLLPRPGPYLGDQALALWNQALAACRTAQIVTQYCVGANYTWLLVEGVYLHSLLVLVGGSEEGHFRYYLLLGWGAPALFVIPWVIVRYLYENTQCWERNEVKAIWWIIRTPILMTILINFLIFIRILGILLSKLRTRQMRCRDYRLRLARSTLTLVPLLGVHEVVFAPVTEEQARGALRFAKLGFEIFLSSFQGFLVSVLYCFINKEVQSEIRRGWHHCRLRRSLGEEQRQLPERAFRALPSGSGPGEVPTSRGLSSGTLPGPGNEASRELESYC
- Procedure details: cell-based or functional assay
Positions of bridges follow the written chain, without caps; N, C: chain ends. Non-standard residues stand in square brackets, D forms with d. No end group written: not given here. *: point of attachment. Acetyl(2-(4-imidazolyl)) = O=C(Cc1c[nH]cn1)*; Aib = CC(C)(N)C(=O)O
Provide the reported In vitro activity (%) compared with native peptide: vs GIP of each item.

INPUT: Entry HGQGTFTSDCSKQLDGQAAQEFVAWLLAGGPSSGAPPPS (ends and bridges not checked) [triple agonist of SEQ ID NO: 44] has what In vitro activity (%) compared with native peptide: vs GIP?
OUTPUT: < 0.1%

INPUT: Now the binder {Acetyl(2-(4-imidazolyl))}-[Aib]QGTFTSDYSKYLDEKRQKEFVQWLLNTKC (bridge 15-19; not fully specified) [triple agonist of SEQ ID NO: 88]
OUTPUT: < 0.1%

INPUT: Please do the same for H[Aib]QGTFTSDVSSYLDGQAQKEFIAWLVKGC (not fully specified) [triple agonist of SEQ ID NO: 2] as well.
OUTPUT: < 0.1%

INPUT: Now consider {Acetyl(2-(4-imidazolyl))}-[Aib]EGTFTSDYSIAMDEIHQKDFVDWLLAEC (bridge 15-19; not fully specified) [triple agonist of SEQ ID NO: 84] and answer again.
OUTPUT: < 0.1%

INPUT: Another binder to check: {Acetyl(2-(4-imidazolyl))}-GQGTFTSDLSIQYEEEAQQDFVEWLKDTGPSSGAPPPSHG (not fully specified; also: ring from underlined residues, positions not shown) [triple agonist of SEQ ID NO: 20]
OUTPUT: < 0.1%
